Quick reference for pIC50 among some molecules
target_of_assay: HDM2 (Homo sapiens)
Construct: Recombinant HDM2 (1.5 μg per well) in TBS-BSA buffer
Sequence (Q00987 whole entry): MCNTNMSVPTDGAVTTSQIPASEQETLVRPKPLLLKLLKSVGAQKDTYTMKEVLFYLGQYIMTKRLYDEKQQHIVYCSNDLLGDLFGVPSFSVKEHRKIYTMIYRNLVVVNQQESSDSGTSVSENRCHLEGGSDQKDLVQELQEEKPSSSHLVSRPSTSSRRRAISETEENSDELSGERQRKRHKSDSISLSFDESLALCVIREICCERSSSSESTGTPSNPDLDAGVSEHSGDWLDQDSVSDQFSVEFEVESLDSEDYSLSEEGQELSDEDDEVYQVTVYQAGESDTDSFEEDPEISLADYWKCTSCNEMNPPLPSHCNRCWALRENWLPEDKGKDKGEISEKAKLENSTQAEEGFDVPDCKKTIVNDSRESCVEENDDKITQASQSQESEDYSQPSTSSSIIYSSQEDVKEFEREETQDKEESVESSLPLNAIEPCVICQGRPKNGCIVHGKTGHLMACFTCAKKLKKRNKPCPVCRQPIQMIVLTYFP
assay: Fluorescence polarisation competitive HDM2 binding assay
test_context: text of Example 10, refer Table 1; read-out: competitive inhibition IC50
Protocol: This was carried out using a 96-well microtiter plate (Costar) format. […] The fluorescence polarisation (excitation 485 nm, emission 520 nm) of the peptide was measured. IC50 values were calculated from dose-response curves. The fluorescence polarisation competitive HDM2 binding assay described in Example 3 was used. Furthermore, the anti-proliferative potency of the compounds against three human tumour cell lines with different genetic make-up was also determined. […]
Entry type: numeric. Quantity: pIC50, the -log10 of concentration in molar units.

# structure_notation, target_of_assay, recorded_result
records = [
    ("O=[N+]([O-])c1ccc(S(=O)(=O)Nc2ccc(Cl)cc2)s1", "HDM2 (Homo sapiens)", 3.37),
]

Pending molecule:
Reported pIC50 for `O=[N+]([O-])c1csc(S(=O)(=O)Nc2ccc(Cl)cc2)c1` was 3.82
